Values compiled from PubChem BioAssay (NCI).

tested on: SK-MEL-28 melanoma; assay: NCI-60 one-dose screen, 48 h (100 = growth as untreated, 0 = no growth, -100 = all killed); conditions: 10 µM
The panel holds about 83,000 compounds, 20% with a hit somewhere; the sample as a whole holds those more often.
Returns one of 1 or 0; 1 when growth is >= -40%.

[
  {
    "molecule": "C[C@]12CC[C@H]3[C@@H](CCC4=CC(=O)CC[C@@H]43)[C@@H]1CC[C@@H]2OC(=O)N(CCCl)N=O",
    "experimental-target": "SK-MEL-28 melanoma",
    "class": 1
  },
  {
    "molecule": "COc1ccc(/C=C(\\C)[N+](=O)[O-])cc1OC",
    "experimental-target": "SK-MEL-28 melanoma",
    "class": 0
  },
  {
    "molecule": "[Cl][Hg][c]1ccc2ccccc2c1",
    "experimental-target": "SK-MEL-28 melanoma",
    "class": 0
  },
  {
    "molecule": "CCOP(=O)(OCC)C(O)c1ccccc1Cl (configuration not stated)",
    "experimental-target": "SK-MEL-28 melanoma",
    "class": 1
  },
  {
    "molecule": "O=[N+]([O-])c1ccc(N2CCOCC2)c2c1no[n+]2[O-]",
    "experimental-target": "SK-MEL-28 melanoma",
    "class": 1
  }
]

Okay, next one:
Ask: Answer whether growth of ClCc1ccc2ccccc2n1 is greater than or equal to -40%.
Result: 1
